- experiment-summary: Primary qHTS for inhibitors of nuclear receptor binding SET domain protein 2 (NSD2) in an isogenic RCH-ACV NSD2 p.E1099K mutant (9B) (AID 1645876); also: nearly all actives have a fitted effect of over 70% in size
- measurement-setup: RCH-ACV (leukaemia line) NSD2 E1099K (9B) viability, CellTiter-Glo, 72 h; series mostly up to 44.9 µM
Results filed as inconclusive are left out. Active and inactive are the calls of the source. Calls follow the shape of the dose curve; as a rule, active = well fitted inhibition curve with a large enough effect; inconclusive = small, poorly fitted or top-dose-only effect; inactive = flat fitted curve, though single readings scatter.
Tick one outcome: 1 (active), -1 (inactive)

Qu. Please let me know the test result on file for CO[C@H]1C[C@@H]2CC[C@@H](C)[C@@](O)(O2)C(=O)C(=O)N2CCCC[C@H]2C(=O)O[C@H]([C@H](C)C[C@@H]2CC[C@@H](OP(C)(C)=O)[C@H](OC)C2)CC(=O)[C@H](C)/C=C(\C)[C@@H](O)[C@@H](OC)C(=O)[C@H](C)C[C@H](C)/C=C/C=C/C=C/1C .
Ans. 1

Qu. Also need COc1cc(C2c3cc4c(c(O)c3CC(CO)C2C(=O)O)OCO4)cc(OC)c1O (stereo not given) , thanks.
Ans. 1

Qu. Another: CC(NC(=O)CCc1nc2ccccc2c(=O)[nH]1)c1ccccc1 (stereo not given)
Ans. -1

Qu. What do you have for CC(O)(CC(=O)O)CC(=O)OCc1ccc(O[C@@H]2O[C@H](CO)[C@@H](O)[C@H](O)[C@H]2O)cc1 (stereo not given in full) ?
Ans. -1

Qu. // next record N#CC(c1ccnc(OCc2ccc(CN3CCOCC3)cc2)n1)c1nc2ccccc2s1 (stereo not given)
Ans. -1

Qu. Try this molecule next: C=C(CO)C12OC1C1(C)C(=CC2=O)C(O)C(O)CC1C (stereo not given)
Ans. -1

Qu. Note, next up: O=C(O)C(O[C@@H]1O[C@H](CO[C@@H]2O[C@H](CO)[C@@H](O)[C@H](O)[C@H]2O)[C@@H](O)[C@H](O)[C@H]1O)c1ccccc1 (stereo not given in full)
Ans. -1

Qu. Now this one: CC(C)=CCC[C@](C)(O)[C@H]1CC[C@]2(C)[C@@H]1[C@H](O)CC1[C@@]3(C)CC[C@H](O)C(C)(C)C3[C@@H](O[C@@H]3O[C@H](CO)[C@@H](O)[C@H](O)[C@H]3O[C@@H]3OC[C@@H](O)[C@H](O)[C@H]3O)C[C@]12C (stereo not given in full)
Ans. -1

Qu. Again, but for COC(=O)c1ccnc(-c2cc(C(=O)NCCc3ccccc3)ccn2)c1
Ans. -1

Qu. Can you handle c1cc(Nc2cc(C3CC3)[nH]n2)nc(Nc2ccc3nc[nH]c3c2)n1 next?
Ans. 1

This collection of values is drawn from PubChem BioAssay (NCATS).
